Run description: Toxicity in brine shrimp
Type: organism-based
Details: artemia, in vivo
# Yes = LC50 below 0.1 µg/mL (exclusive); No = LC50 at/above 0.1 µg/mL

compound="CCCCCCCCCC[C@@H](O)[C@H]1CC[C@H]([C@H]2CC[C@H]([C@H](O)CCCCCCCCCC[C@@H](O)CC3=C[C@H](C)OC3=O)O2)O1 [ASIMICIN]" group=Yes

Proceed to the following item.
## Task LC50 strictly < 0.1 µg/mL for this compound? CC[C@H](CC[C@@H](C)[C@H]1CC[C@H]2[C@@H]3CC=C4C[C@@H](O[C@@H]5O[C@H](CO)[C@@H](O)[C@H](O)[C@H]5O)CC[C@]4(C)[C@H]3CC[C@]12C)C(C)C [SITOGLUSIDE]
## Result No
